test.target: α-Glucosidase
run.description: Alpha-glucosidase test
assay.context: ± SEM
metric: IC50 (µM)
Give the quantity in µM, number only.

Inquiry: // map COc1cc(CC(C)=O)ccc1OC1CC(=O)N(Cc2ccccc2)C1=O (stereo not shown) to recorded IC50 (system: α-Glucosidase)
Reply text: 7.2
